Origin of measurements: patent US20220056111A1

Provide the reported Kd of each item.
Target: SARS-CoV-2 Spike S1 protein (SARS-CoV-2, UniProt P0DTC2 16-685)

In plain terms, rabbit monoclonal antibody 7G5 against the SARS-CoV-2 S1 (antibody, V domains shown) VH: QEQLEESGGDLVKPGASLTLTCTASGFSFSSAYYMCWVRQAPGKGLEWIACIGVDSGGNSYYASWAKGRFTISTTSSTTVTLQMTSLTAADKATYFCTRSFSLWGPGTLVTISS VL: RKWLTQTASSVSAAVGGTVTISCQASQSVYNNDNLAWFQQRPGQPPKLLIYLASNLASGVPPRFSGSGSGTQFTLTISDVQCDDAATYYCLGGYDCSNADCHAFGGGTEVVVKG has a documented Kd of 2.14 nM

In plain terms, rabbit monoclonal antibody 9A5 against the SARS-CoV-2 S1 (antibody, V domains shown) VH: QSVEESGGRLVTPGTPLTLTCTVSGFSLSAYQMIWVRQTPGKGLEYIGIMHTGTSAYYANWAKGRFTISKTSSTTVDLKMTSPTTEDTATYFCGRNLNEGFTGAYPFNLWGPGTLVAVSS VL: DVVMTQTPASVEAAVGGTVTIKCQASQSIGSNLAWYQKKPGQPPKLLIYQASNLASGVPSRFKGSGSGTQFTLTISDLECADAATYYCQMNYYISSSYTYTFGGGTEVVVKG has a documented Kd of 0.87 nM

In plain terms, rabbit monoclonal antibody 5E1 against the SARS-CoV-2 S1 (antibody, V domains shown) VH: QSVEESGGRLVTPGTPLTLTCTVSGIDLSSYAMGWVRQAPGKGLEYIGIIYISGLTYYASWAKGRFTISKTSTTVDLKIPSPTTEDTATYFCARGEYNSHSHYLLWGPGTLVTVSS VL: AYDMTQTPSSVSEPVGGTVSIKCQASQNIYSNLAWYQQKPGQRPKLLIYDASQLASGVPSRFKGSGSGTEYTLTISGVECADAATYYCQQGFESSDIFNVFGGGTEVVVKG has a documented Kd of ≤ 0.138 nM

In plain terms, rabbit monoclonal antibody 1H1 against the SARS-CoV-2 S1 (antibody, V domains shown) VH: QSLEESGGDLVKPGASLTLTCTASGFSFSSGYDMCWVRQAPGKGLEWIACIGTGSSGNIYYASWAKGRFTISKTSSTTVTLQMTSLTAADTATYFCARDDADYAGPDYFNLWGPGTLVTVSS VL: DIVMTQTPASVSEPVGGTVTIKCQASESISNWLAWYQQKPGQPPKLLIYAAFTLASGVPSRFKGSGSGTQFTLTINGVECADAATYYCQQTYSSRDVDNVFGGGTEVVVKG has a documented Kd of 2.06 nM
